target: Cruzipain (Trypanosoma cruzi); experiment: Inhibition of Trypanosoma cruzi C-terminally truncated cruzain expressed in Escherichia coli using Z-Phe-Arg-AMC as substrate incubated for 5 mins prior to substrate addition by spectrofluorometry
Sequence (P25779 whole entry, the tested form may be a part): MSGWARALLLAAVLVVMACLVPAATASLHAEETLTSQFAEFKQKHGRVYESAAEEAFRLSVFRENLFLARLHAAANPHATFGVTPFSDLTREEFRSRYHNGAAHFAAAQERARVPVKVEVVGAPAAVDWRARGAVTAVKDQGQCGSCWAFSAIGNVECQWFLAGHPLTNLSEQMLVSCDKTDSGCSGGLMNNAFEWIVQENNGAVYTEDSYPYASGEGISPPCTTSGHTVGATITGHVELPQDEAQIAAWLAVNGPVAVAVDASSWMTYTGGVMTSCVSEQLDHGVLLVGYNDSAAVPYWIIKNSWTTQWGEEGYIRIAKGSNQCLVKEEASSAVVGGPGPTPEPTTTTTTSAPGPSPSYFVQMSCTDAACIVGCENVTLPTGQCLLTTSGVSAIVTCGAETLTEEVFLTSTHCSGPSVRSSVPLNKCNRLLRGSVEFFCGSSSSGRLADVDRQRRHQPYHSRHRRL
pIC50 overview
Conceptually, pIC50 converts a concentration in mol/L into minus its log10.

Examples from the recorded data:
[
  {
    "structure.as.smiles": "COc1cc(/C=N/NC(=O)/C=C/c2cc(OC)c(OC)c(OC)c2)cc([N+](=O)[O-])c1O",
    "pIC50": 4.34
  },
  {
    "structure.as.smiles": "O=C(/C=C/c1ccc2c(c1)OCO2)N/N=C/c1ccccc1O",
    "pIC50": 4.13
  },
  {
    "structure.as.smiles": "O=C(/C=C/c1ccccc1)N/N=C/c1ccccc1O",
    "pIC50": 4.28
  },
  {
    "structure.as.smiles": "COc1cc(/C=C/C(=O)N/N=C/c2ccccc2O)cc([N+](=O)[O-])c1OC",
    "pIC50": 4.08
  }
]

## Task Please state recorded pIC50 (tested on Cruzipain (Trypanosoma cruzi)) of COc1cc(/C=N/NC(=O)/C=C/c2cc(OC)c(OC)c([N+](=O)[O-])c2)cc([N+](=O)[O-])c1O
## Result 4.35

* * *

assay: Selectivity index, ratio of IC50 for mouse J774 cells to IC50 for bloodstream form of Trypanosoma cruzi trypomastigote; assay type: toxicity, cell-based; conditions: read-out: Ratio IC50
Criterion: selectivity ratio meeting or surpassing 70. Met: Criterion met. Not met: Criterion not met.

## Task Determine whether measured selectivity ratio meets or exceeds 70 for COc1cc(/C=N/NC(=O)/C=C/c2cc(OC)c(OC)c(OC)c2)cc([N+](=O)[O-])c1O
## Result Criterion met

## Task Determine whether measured selectivity ratio meets or exceeds 70 for O=C(/C=C/c1ccc2c(c1)OCO2)N/N=C/c1ccccc1O
## Result Criterion not met

## Task Determine whether measured selectivity ratio meets or exceeds 70 for COc1cc(/C=N/NC(=O)/C=C/c2cc(OC)c(OC)c([N+](=O)[O-])c2)cc([N+](=O)[O-])c1O
## Result Criterion met

## Task Determine whether measured selectivity ratio meets or exceeds 70 for COc1cc(/C=C/C(=O)N/N=C/c2ccccc2O)cc([N+](=O)[O-])c1OC
## Result Criterion not met

## Task Determine whether measured selectivity ratio meets or exceeds 70 for O=C(CCc1ccccc1)N/N=C/c1ccccc1O
## Result Criterion met

## Task Determine whether measured selectivity ratio meets or exceeds 70 for O=C(Cn1ccnc1[N+](=O)[O-])NCc1ccccc1 [BENZNIDAZOLE]
## Result Criterion met

* * *

pIC50 overview
tested on: J774; test: Cytotoxicity against mouse J774 cells after 18 hrs by MTT assay; format: cell-based; details: J774, 18 h
Conceptually, pIC50 converts a concentration in mol/L into minus its log10.

Examples from the recorded data:
[
  {
    "structure.as.smiles": "O=C(CCc1ccccc1)N/N=C/c1ccccc1O",
    "pIC50": 2.79
  },
  {
    "structure.as.smiles": "COc1cc(/C=N/NC(=O)/C=C/c2cc(OC)c(OC)c(OC)c2)cc([N+](=O)[O-])c1O",
    "pIC50": 2.62
  }
]

## Task Can you share its pIC50? I mean this compound: O=C(/C=C/c1ccc2c(c1)OCO2)N/N=C/c1ccccc1O
## Result 3.55

## Task Can you share its pIC50? I mean this compound: COc1cc(/C=N/NC(=O)/C=C/c2cc(OC)c(OC)c([N+](=O)[O-])c2)cc([N+](=O)[O-])c1O
## Result 2.73

## Task Can you share its pIC50? I mean this compound: O=C(Cn1ccnc1[N+](=O)[O-])NCc1ccccc1
## Result 2.42

## Task Can you share its pIC50? I mean this compound: O=C(/C=C/c1ccccc1)N/N=C/c1ccccc1O
## Result 3.38

## Task Can you share its pIC50? I mean this compound: COc1cc(/C=C/C(=O)N/N=C/c2ccccc2O)cc([N+](=O)[O-])c1OC
## Result 3.26
